assay: Multiple oral dose plasma pharmacokinetics in healthy subjects; type: in vivo, human; settings: human, plasma, oral, 10 ug, healthy subjects, 10 μg qd, Day 13, plasma; mean; read-out: Cmax
Measure Name: Cmax (ng/mL)
Your answer is read as ng/mL, so omit the unit and give the number.

Cmax measured on O=C(O)c1cc(F)c2nc(N3C4CC[C@H]3CC(OCc3c(-c5ccccc5OC(F)(F)F)noc3C3CC3)C4)sc2c1 (stereo partly shown) = 0.319

====

experiment: Multiple oral dose plasma pharmacokinetics in healthy subjects; type: in vivo, human; settings: human, plasma, oral, 30 ug, healthy subjects, 30 μg qd, Day 13, plasma; median; read-out: Tmax
Measure Name: Tmax (h)
Value expressed in h; do not type the unit.

Reported Tmax for O=C(O)c1cc(F)c2nc(N3C4CC[C@H]3CC(OCc3c(-c5ccccc5OC(F)(F)F)noc3C3CC3)C4)sc2c1 (stereo partly shown) [Compound A] was 4

====

assay: Single oral dose plasma pharmacokinetics in healthy subjects; assay type: in vivo, human; details: human, 10 ug; healthy subjects, single oral dose 10 μg, fasted, plasma; mean
Measure Name: AUC(0-inf)
Please state the value followed by its unit.

# compound O=C(O)c1cc(F)c2nc(N3C4CC[C@H]3CC(OCc3c(-c5ccccc5OC(F)(F)F)noc3C3CC3)C4)sc2c1 (stereo partly shown) ; its AUC(0-inf) = 3.39 ng·h/mL

====

assay: Multiple oral dose plasma pharmacokinetics in healthy subjects; type: in vivo, human; conditions: human, plasma, oral, 10 ug, healthy subjects, 10 μg qd, Day 13, plasma; mean; read-out: AUCtau
Measure Name: AUC (ng·h/mL)
// note: answer is a bare numeric in ng·h/mL

Recorded result, O=C(O)c1cc(F)c2nc(N3C4CC[C@H]3CC(OCc3c(-c5ccccc5OC(F)(F)F)noc3C3CC3)C4)sc2c1 (stereo partly shown) [Compound A] , AUC: 4.88

====

assay: Single oral dose plasma pharmacokinetics in healthy subjects; assay type: in vivo, human; conditions: human, 1000 ug; healthy subjects, single oral dose 1000 μg, fasted, plasma; mean
Measure Name: Cmax

# Cmax of O=C(O)c1cc(F)c2nc(N3C4CC[C@H]3CC(OCc3c(-c5ccccc5OC(F)(F)F)noc3C3CC3)C4)sc2c1 (stereo partly shown) [Compound A] = 22.1 ng/mL

====

test: Multiple oral dose plasma pharmacokinetics in healthy subjects; format: in vivo, human; settings: human, plasma, oral, 60 ug, healthy subjects, 60 μg qd, Day 1, plasma; mean; read-out: AUCtau
Measure Name: AUC (ng·h/mL)
Expressed in ng·h/mL, but write only the number.

Notebook: O=C(O)c1cc(F)c2nc(N3C4CC[C@H]3CC(OCc3c(-c5ccccc5OC(F)(F)F)noc3C3CC3)C4)sc2c1 (stereo partly shown) , AUC read as 16.2

====

experiment: Single oral dose plasma pharmacokinetics in healthy subjects; assay type: in vivo, human; conditions: human, 1000 ug; healthy subjects, single oral dose 1000 μg, fasted, plasma; mean; read-out: T1/2 (converted)
Measure Name: half-life

The recorded half-life for O=C(O)c1cc(F)c2nc(N3C4CC[C@H]3CC(OCc3c(-c5ccccc5OC(F)(F)F)noc3C3CC3)C4)sc2c1 (stereo partly shown) is 21.9 h

====

experiment: Single oral dose plasma pharmacokinetics in healthy subjects; type: in vivo, human; settings: human, 100 ug; healthy subjects, single oral dose 100 μg, fasted, plasma; mean
Measure Name: AUC(0-t)
Numeric answer plus unit only.

GET /value?item= O=C(O)c1cc(F)c2nc(N3C4CC[C@H]3CC(OCc3c(-c5ccccc5OC(F)(F)F)noc3C3CC3)C4)sc2c1 (stereo partly shown) &field=AUC(0-t) returns 34.8 ng·h/mL
